- Test system: E. coli MP-4
- Experiment: MIC determination by CLSI broth dilution, E. coli MP-4
- Type: cell-based
- Assay Context: Escherichia coli, MP4, CLSI broth dilution; strain MP-4
Assay Endpoint: MIC

Illustrative cases are given below, each with its answer.
[
  {
    "Compound": "CO[C@]1(C)C[C@@H](C)CN(C)[C@H](CC2CCN(C3CCCC3)CC2)COC(=O)C(C)(C)C(=O)[C@H](C)[C@H]1O[C@@H]1O[C@H](C)C[C@H](N(C)C)[C@H]1O [Compound 60]",
    "Test Target": "E. coli MP-4",
    "Assay Endpoint": "MIC",
    "Result": "< 4 µg/mL"
  },
  {
    "Compound": "CCN(C)[C@H]1C[C@H](C[C@]2(C)COC(=O)C(C)(C)C(=O)[C@H](C)[C@@H](O[C@@H]3O[C@H](C)C[C@H](N(C)C)[C@H]3O)[C@](C)(OC)C[C@@H](C)CN2C)C1 [Compound 196]",
    "Test Target": "E. coli MP-4",
    "Assay Endpoint": "MIC",
    "Result": "< 4 µg/mL"
  },
  {
    "Compound": "C=C(C[C@@H]1COC(=O)C(C)(C)C(=O)[C@H](C)[C@@H](O[C@@H]2O[C@H](C)C[C@H](N(C)C)[C@H]2O)[C@](C)(OC)C[C@@H](C)CN1C)CN(CCC)CCC [Compound 2]",
    "Test Target": "E. coli MP-4",
    "Assay Endpoint": "MIC",
    "Result": "4 to 32 µg/mL"
  },
  {
    "Compound": "CO[C@]1(C)C[C@@H](C)CN(C)[C@@H](CN2CCN(S(=O)(=O)N(C)C)CC2)[C@H](C)OC(=O)C(C)(C)C(=O)[C@H](C)[C@H]1O[C@@H]1O[C@H](C)C[C@H](N(C)C)[C@H]1O [Compound 142]",
    "Test Target": "E. coli MP-4",
    "Assay Endpoint": "MIC",
    "Result": "> 32 µg/mL"
  }
]

q: Given the compound CCCCCCCN1CCC(C[C@@H]2COC(=O)[C@@](C)(Cl)C(=O)[C@H](C)[C@@H](O[C@@H]3O[C@H](C)C[C@H](N(C)C)[C@H]3O)[C@](C)(OC)C[C@@H](C)CN2C)CC1 [Compound 173] , write its reported MIC.
a: < 4 µg/mL

q: Write down MIC measured for item CO[C@]1(C)C[C@@H](C)CN(C)[C@H](CC2CCN(C=O)CC2)COC(=O)C(C)(C)C(=O)[C@H](C)[C@H]1O[C@@H]1O[C@H](C)C[C@H](N(C)C)[C@H]1O [Compound 64]
a: > 32 µg/mL

q: Give MIC for the following compound: CCCN(CCC)CC[C@@H](O)[C@@H]1COC(=O)C(C)(C)C(=O)[C@H](C)[C@@H](O[C@@H]2O[C@H](C)C[C@H](N(C)C)[C@H]2O)[C@](C)(OC)C[C@@H](C)CN1CC [Compound 223]
a: < 4 µg/mL

q: Quick one: give measured MIC for CCC(=O)N1CCN(C[C@H]2[C@H](C)OC(=O)C(C)(C)C(=O)[C@H](C)[C@@H](O[C@@H]3O[C@H](C)C[C@H](N(C)C)[C@H]3O)[C@](C)(OC)C[C@@H](C)CN2C)CC1 [Compound 133]
a: > 32 µg/mL

q: Using known records, supply MIC for COCCCN1CCC(C[C@@H]2COC(=O)C(C)(C)C(=O)[C@H](C)[C@@H](O[C@@H]3O[C@H](C)C[C@H](N(C)C)[C@H]3O)[C@](C)(OC)C[C@@H](C)CN2C)CC1 [Compound 50]
a: < 4 µg/mL

q: Look up MIC of CCN1C[C@H](C)C[C@@](C)(OC)[C@H](O[C@@H]2O[C@H](C)C[C@H](N(C)C)[C@H]2O)[C@@H](C)C(=O)C(C)(C)C(=O)OC[C@H]1C=C1CCN(C2Cc3ccccc3C2)CC1 [Compound 191] and report it.
a: < 4 µg/mL

q: For CO[C@]1(C)C[C@@H](C)CN(C)[C@@H](CN(C)Cc2nccn2C)COC(=O)C(C)(C)C(=O)[C@H](C)[C@H]1O[C@@H]1O[C@H](C)C[C@H](N(C)C)[C@H]1O [Compound 104] , write its MIC.
a: 4 to 32 µg/mL

q: Output measured MIC for this item: CCCN1C[C@H](C)C[C@@](C)(OC)[C@H](O[C@@H]2O[C@H](C)C[C@H](N(C)C)[C@H]2O)[C@@H](C)C(=O)C(C)(C)C(=O)OC[C@@H]1CCCN1CCCC1 [Compound 127]
a: < 4 µg/mL

q: Specify measured MIC for CCN1C[C@H](C)C[C@@](C)(OC)[C@H](O[C@@H]2O[C@H](C)C[C@H](N(C)C)[C@H]2O)[C@@H](C)C(=O)C(C)(C)C(=O)OC[C@H]1[C@H](O)CCN(C)C(C)C [Compound 224] .
a: < 4 µg/mL

q: Give the reported value of MIC for this record: CCN1C[C@H](C)C[C@@](C)(OC)[C@H](O[C@@H]2O[C@H](C)C[C@H](N(C)C)[C@H]2O)[C@@H](C)C(=O)C(C)(C)C(=O)OC[C@H]1CC1CCN(C)CC1 [Compound 98]
a: < 4 µg/mL

q: Please report the measured MIC for CO[C@]1(C)C[C@@H](C)CN(C)[C@@H](CCCN2CCCCC2)COC(=O)C(C)(C)C(=O)[C@H](C)[C@H]1O[C@@H]1O[C@H](C)C[C@H](N(C)C)[C@H]1O [Compound 83]
a: < 4 µg/mL

q: Identify the reported MIC for the following entry. CCN1C[C@H](C)C[C@@](C)(OC)[C@H](O[C@@H]2O[C@H](C)C[C@H](N(C)C)[C@H]2O)[C@@H](C)C(=O)C(C)(C)C(=O)OC[C@@H]1CN1CCN(C(C)C)CC1 [Compound 159]
a: < 4 µg/mL

q: State its MIC for this compound: CCCN1CCC(=C[C@@H]2COC(=O)C(C)(C)C(=O)[C@H](C)[C@@H](O[C@@H]3O[C@H](C)C[C@H](N(C)C)[C@H]3O)[C@](C)(OC)C[C@@H](C)CN2C)CC1 [Compound 149]
a: < 4 µg/mL

q: For the compound CCCN(CCC)CC[C@@](C)(O)[C@@H]1COC(=O)C(C)(C)C(=O)[C@H](C)[C@@H](O[C@@H]2O[C@H](C)C[C@H](N(C)C)[C@H]2O)[C@](C)(OC)C[C@@H](C)CN1C [Compound 229] , give its reported MIC.
a: 4 to 32 µg/mL

q: Output MIC of CO[C@]1(C)C[C@@H](C)CN(C)[C@H](CC2CCN(CC(C)(C)C)CC2)C(C)(C)OC(=O)C(C)(C)C(=O)[C@H](C)[C@H]1O[C@@H]1O[C@H](C)C[C@H](N(C)C)[C@H]1O [Compound 36]
a: < 4 µg/mL

###

- Tested on: K. pneumoniae MP-546
- Experiment: MIC determination by CLSI broth dilution, K. pneumoniae MP-546
- Format: cell-based
- Assay Context: Klebsiella pneumoniae, MP546, CLSI broth dilution; strain MP-546
Reported MIC values follow for various compounds

// below: answered compounds
[
  {
    "Compound": "CO[C@]1(C)C[C@@H](C)CN(C)[C@@H](CN2CCN(S(=O)(=O)c3cn(C)cn3)CC2)[C@H](C)OC(=O)C(C)(C)C(=O)[C@H](C)[C@H]1O[C@@H]1O[C@H](C)C[C@H](N(C)C)[C@H]1O [Compound 81]",
    "Assay Endpoint": "MIC",
    "Result": "> 32 µg/mL"
  },
  {
    "Compound": "CO[C@]1(C)C[C@@H](C)CN(C)[C@@H](CC2CCN(C(C)C)CC2)COC(=O)C(C)(C)C(=O)[C@H](C)[C@H]1O[C@@H]1O[C@H](C)C[C@H](N(C)C)[C@H]1O [Compound 68]",
    "Assay Endpoint": "MIC",
    "Result": "4 to 32 µg/mL"
  },
  {
    "Compound": "CO[C@]1(C)C[C@@H](C)CN(C)[C@@H](CCCN2CCCC2)COC(=O)C(C)(C)C(=O)[C@H](C)[C@H]1O[C@@H]1O[C@H](C)C[C@H](N(C)C)[C@H]1O [Compound 107]",
    "Assay Endpoint": "MIC",
    "Result": "< 4 µg/mL"
  }
]

q: Fill in MIC for record CCCN1CCC(C[C@@H]2COC(=O)C(C)(C)C(=O)[C@H](C)[C@@H](O[C@@H]3O[C@H](C)C[C@H](N(C)C)[C@H]3O)[C@](C)(OC)C[C@@H](C)CN2CCC)CC1 [Compound 96]
a: < 4 µg/mL

q: // Input: CCCN1CCC(C[C@@H]2COC(=O)C(C)(C)C(=O)[C@H](C)[C@@H](O[C@@H]3O[C@H](C)C[C@H](N(C)C)[C@H]3O)[C@](C)(OC)C[C@@H](C)CN2C)CC1 [Compound 42] . Output its MIC only.
a: < 4 µg/mL

q: Name the recorded MIC of the compound listed here: CCN1C[C@H](C)C[C@@](C)(OC)[C@H](O[C@@H]2O[C@H](C)C[C@H](N(C)C)[C@H]2O)[C@@H](C)C(=O)C(C)(C)C(=O)OC[C@@H]1CCCN1CCCC1 [Compound 87]
a: < 4 µg/mL

q: Supply reported MIC belonging to this compound: CO[C@]1(C)C[C@@H](C)CN(C)[C@H](CCCN2CCC(F)CC2)COC(=O)C(C)(C)C(=O)[C@H](C)[C@H]1O[C@@H]1O[C@H](C)C[C@H](N(C)C)[C@H]1O [Compound 85]
a: < 4 µg/mL

q: Using the record for CO[C@]1(C)C[C@@H](C)CN(C)[C@@H](CC2CCN(C3CC3)CC2)COC(=O)C(C)(C)C(=O)[C@H](C)[C@H]1O[C@@H]1O[C@H](C)C[C@H](N(C)C)[C@H]1O [Compound 69] , state its measured MIC.
a: 4 to 32 µg/mL
